System: P. falciparum stage V gametocytes
Design: BacTiter-Glo ATP luminescence viability of purified stage V gametocytes in 384-well plates, per cent inhibition versus DMSO
Conditions Used: 48 h, 5 µM; inhibitor
The whole screen tested about 13,000 compounds, of which about 3,200 (25%) showed an effect of 50% or more. This is one part of the list.

Molecule: CCOc1cc(C)ccc1N(C1CCN(CCCCNC(=O)c2ccc(-c3ccc(C(F)(F)F)cc3)cc2)CC1)S(=O)(=O)c1ccccc1
% Inhibition / %: 32.99
--
Molecule: O=C(NC1CCN(CCC(NC(=O)c2ccccc2)c2ccc(Cl)c(Cl)c2)CC1)c1ccc(Cl)cc1 (stereo not shown)
% Inhibition / %: -1.186
--
Molecule: CCOC(=O)N1CCC(NC(=O)c2ccc(C(C)(C)C)cc2OC)CC1
% Inhibition / %: 15.99
--
Molecule: CC(C)NC(=O)c1cccc(-c2cccc(OCCN3CCSCC3c3ccccc3)c2)c1 (stereo not shown)
% Inhibition / %: 34.28
--
Molecule: Cc1ccc(C2(CN3CCC(NC(=O)c4[nH]ncc4Cl)CC3)CCCCC2)cc1
% Inhibition / %: 29.65
--
Molecule: Cc1ccc(N2CCN(C(=O)c3cccc(-c4cncc5nc(-c6ccco6)n(C)c45)c3)CC2)nc1
% Inhibition / %: -10.32
--
Molecule: NC(=O)c1ccccc1OCC(=O)Nc1cccc(-c2ccc(-c3nc4ccccc4[nH]3)cc2)c1
% Inhibition / %: 7.419

====

% Inhibition values by entry
System: P. falciparum stage V gametocytes
Set-up: BacTiter-Glo ATP luminescence viability of purified stage V gametocytes in 384-well plates, per cent inhibition versus DMSO
Conditions Used: 48 h, 5 µM; inhibitor
About 3,200 (25%) of roughly 13,000 compounds showed an effect of 50% or more. Some of the results follow.

Compound: COc1ccc2c(NN=Cc3cccnc3)cc(C)nc2c1
% Inhibition (%): 80.26

Compound: Cc1cc(NCCCN2CCCC2=O)n2c(nc3ccccc32)c1C#N
% Inhibition (%): -25.7

Compound: COc1cc(N)c(Cl)cc1C(=O)NC1CCC(NCC2CCCCC2)CC1 (stereo not drawn)
% Inhibition (%): 0.4196

Compound: COc1ccc(S(=O)(=O)Nc2cc(C)cc(Br)c2OC)cc1N1CCN(C(=O)C(Cl)(Cl)Cl)CC1
% Inhibition (%): 8.102

Compound: COc1cc2c(cc1OC)C(C(=O)c1ccccc1)=NCC2.Cl
% Inhibition (%): 35.87

Compound: CC1(C)NC(N)=NC(=N)N1OCCCO
% Inhibition (%): -1.825

Compound: O=C(Nc1cccc(N2CCC(NCc3cccnc3)CC2)c1)c1cccc(C(F)(F)F)c1
% Inhibition (%): -0.3933

Compound: COc1ccc2nc(C)cc(NN=Cc3ccccc3)c2c1
% Inhibition (%): 2.081

Compound: COC(=O)c1ccc(-c2ccc(-c3cccnc3)cc2C)cc1
% Inhibition (%): 95.09

====

Test system: P. falciparum stage V gametocytes
Design: BacTiter-Glo ATP luminescence viability of purified stage V gametocytes in 384-well plates, per cent inhibition versus DMSO
Conditions Used: 48 h, 5 µM; inhibitor
Hit rate of the full screen: of about 13,000 compounds, about 3,200 (25%) showed an effect of 50% or more. Some of the results follow.
Readout Name: % Inhibition (%)

Compound: CC1CCCCN1CCCNC(=O)c1cccc(-c2cc3cc(Cl)c(Cl)cc3[nH]2)c1 (stereo not drawn)
Reported Result: -28.41
//
Compound: CN1CCC(N(Cc2ccc(-c3ccc(C(F)(F)F)cc3)nc2)C(=O)Cn2c(CCc3cccc(F)c3F)cc(=O)c3ccccc32)CC1
Reported Result: 27.49
//
Compound: Cc1cc2nc(-c3ccc(C(=O)NCc4cccc(F)c4)cc3)[nH]c2cc1C
Reported Result: -28.29
//
Compound: O=C(NC1CCC(N2CCC(O)(c3ccc(F)cc3)CC2)CC1)c1cc2ccccc2[nH]1 (stereo not drawn)
Reported Result: 9.268
//
Compound: COc1ccc2cc(-c3nc(-c4c(Cl)cccc4Cl)[nH]c3-c3ccnc(NCCCN4CCCCC4C)c3)ccc2c1 (stereo not drawn)
Reported Result: 95.77
//
Compound: COc1ccccc1-c1ccc(C(=O)NCC2CCCN(Cc3cccc(C(F)(F)F)c3)C2)s1 (stereo not drawn)
Reported Result: 55.62
//
Compound: CCc1cn(CCc2ccccc2)c2ccc(C(=O)N[C@@H](Cc3ccccc3)[C@H](O)CNC(C)(C)CCCC(C)C)cc12
Reported Result: 76.37
//
Compound: CCn1cc(CN2CCCC(C(=O)Nc3ccc(-c4nc5ccccc5[nH]4)cc3)C2)cn1 (stereo not drawn)
Reported Result: -65.71
//
Compound: COc1ccc(CN2CCN(Cc3cc(Cl)ccc3O)CC2CCO)c(C)c1C (stereo not drawn)
Reported Result: -22.47
//
Compound: N#Cc1cccc(CN2CCCN(c3ccc(NC(=O)c4cccs4)cc3)CC2)c1
Reported Result: -14.58
//
Compound: Cc1noc(C)c1-c1cccc(CNCc2cccc(-c3cccc(-c4nc5ccccc5[nH]4)c3)c2)c1.O=C(O)C(F)(F)F
Reported Result: 2.097
//
Compound: CCc1cn2c3c(cc(C(=O)N[C@@H](Cc4ccccc4)[C@H](O)CN[C@@H](C)CC)cc13)N(C)S(=O)(=O)CC2
Reported Result: 46.03
//
Compound: O=C(NC1CCC(CN2CCC(c3c[nH]c4ccccc34)CC2)CC1)NC12CC3CC(CC(C3)C1)C2 (stereo not drawn)
Reported Result: 96.25
//
Compound: O=C1CCCC1Sc1nc2ccccc2c(=O)n1-c1ccc(Cl)c(Cl)c1 (stereo not drawn)
Reported Result: -36.37
//
Compound: CNC(=O)c1ccccc1Nc1cc(Nc2cc(OC)ccn2)ncc1Cl
Reported Result: -20.04
//
Compound: O=C(NC1CCC(N2CCN(c3cccc(C(F)(F)F)c3)CC2)CC1)c1cc2ccccc2[nH]1 (stereo not drawn)
Reported Result: 32.36
//
Compound: CC(C)Oc1cccc(-c2ccc(C(=O)NCC3CCCN(Cc4cccc(C(F)(F)F)c4)C3)s2)c1 (stereo not drawn)
Reported Result: 86.43
//
Compound: CN(C)c1ccc(CN2CCCC(CNC(=O)c3ccc(-c4cccc(C(F)(F)F)c4)s3)C2)cc1 (stereo not drawn)
Reported Result: 98.4
//
Compound: Cc1cccc(NC(=O)N(Cc2cc3cc(C)cc(C)c3[nH]c2=O)C2CC2)c1
Reported Result: 4.214
//
Compound: CC(C)OCCCNC(=O)c1nc(-c2cccc(C(F)(F)F)c2)sc1C(C)C
Reported Result: 3.705
//
Compound: CCc1ccc(CN2CCC(CNC(=O)c3cc(-c4cccc(C(F)(F)F)c4)cs3)C2)cc1 (stereo not drawn)
Reported Result: 102.1
//
Compound: C=C[C@]1(C)C[C@@H](OC(=O)CNC[C@@H](O)CN2C[C@H](c3ccnc4ccc(OC)nc34)OC2=O)[C@]2(C)[C@H](C)CC[C@]3(CCC(=O)[C@H]32)[C@@H](C)[C@@H]1O
Reported Result: -2.122
//
Compound: COc1ccccc1CN1CCC(NC(=O)c2ccc(-c3cccc(C(F)(F)F)c3)s2)CC1
Reported Result: 4.957
//
Compound: CCc1cn(CCCOC)c2ccc(C(=O)N[C@@H](Cc3ccccc3)[C@H](O)CNCc3cccc(C(F)(F)F)c3)cc12
Reported Result: 4.563
//
Compound: CCN1CCC(N(Cc2ccc(-c3ccc(Cl)cc3)cc2)C(=O)Cn2c(CCc3cccc(F)c3F)cc(=O)c3ccccc32)CC1
Reported Result: 109.7
//
Compound: O=C(NC1CCN(Cc2ccc(F)cc2)CC1)c1ccc(-c2cccc(C(F)(F)F)c2)s1
Reported Result: -14.39
//
Compound: CS(=O)(=O)c1ccc(CNCc2ccc(-c3ccc(-c4nc5cc(C(F)(F)F)ccc5[nH]4)s3)cc2)cc1.O=C(O)C(F)(F)F
Reported Result: -5.935

====

Test system: P. falciparum stage V gametocytes
Parameters: BacTiter-Glo ATP luminescence viability of purified stage V gametocytes in 384-well plates, per cent inhibition versus DMSO
Conditions Used: 48 h, 5 µM; inhibitor
The campaign covered roughly 13,000 compounds. About 3,200 (25%) showed an effect of 50% or more. The list shows a part of the results.

Compound: FC(F)(F)c1ccc2[nH]c(-c3ccc(-c4cccc(CNCc5cnn(-c6ccccc6)n5)c4)cc3)nc2c1.O=C(O)C(F)(F)F
% Inhibition, %: -20.04

Compound: CN1CCN(c2cc(NC(=O)c3ccc(-c4ccc(C#N)cc4)cc3)ccc2Cl)CC1
% Inhibition, %: -41.42

Compound: C/C=C/COc1ccc2ccccc2c1CNCCCCCCCCNCc1c(OC/C=C/C)ccc2ccccc12
% Inhibition, %: 118.6

Compound: CCc1cn2c3c(cc(C(=O)N[C@@H](Cc4ccccc4)[C@H](O)CNC4CCOCC4)cc13)N(C)S(=O)(=O)C2
% Inhibition, %: 4.179

Compound: O=S(=O)(Nc1ccc(CCN2CCCCC2CCN2CCCC2)cc1)c1cccc2cccnc12 (stereo not drawn)
% Inhibition, %: 43.66

Compound: CCCOc1ccc(C(F)(F)F)cc1NC(=O)c1nc2nc(C)cc(C)n2n1
% Inhibition, %: -88.48

Compound: CC1(C)N=C(N)N=C(N)N1c1cc(Cl)c(Cl)c(Cl)c1
% Inhibition, %: -8.001

Compound: CC(=O)c1cccc(NC(=O)NC2CCN(c3ccnc(Nc4ccc(F)cc4)n3)C2)c1 (stereo not drawn)
% Inhibition, %: -13.54

Compound: CCN(CC)CCN(Cc1ccc(-c2ccc(C(F)(F)F)cc2)cc1)C(=O)Cn1c(CCc2ccc(F)c(F)c2F)nc(=O)c2ccc(F)cc21
% Inhibition, %: 19.94

Compound: CCCc1cn2c3c(cc(C(=O)N[C@@H](Cc4ccccc4)[C@H](O)CNC4CCCCC4)cc13)N(C)S(=O)(=O)CC2
% Inhibition, %: 15.59

Compound: Cc1ccc(CNC(=O)c2cc3c(=O)n4ccccc4nc3n(CCCN3CCOCC3)c2=N)cc1
% Inhibition, %: 26.53

Compound: CCN(CC)CCN(Cc1ccc(-c2ccc(C(F)(F)F)cc2)cc1)C(=O)Cn1c(CCc2ccc(F)c(F)c2F)nc(=O)c2ccccc21
% Inhibition, %: 68.69

Compound: CC(C)NC[C@@H](O)[C@H](Cc1ccccc1)NC(=O)c1cc2c3c(c1)c(C(C)C)cn3CCS(=O)(=O)N2C
% Inhibition, %: 49.45

Compound: CCC(ON1C(N)=NC(N)=NC1(C)C)c1ccc(Cl)cc1 (stereo not drawn)
% Inhibition, %: 18.34

Compound: CC(=O)c1ccc(NC(=O)Nc2ccc(N(C)c3ccnc(Nc4cccc(CS(C)(=O)=O)c4)n3)cc2)cc1
% Inhibition, %: -10.01
